These measurements were taken from PubChem BioAssay AID758.

system: Rab7 GTPase wild type (dog), Bodipy-FL-GTP binding; assay: modulators of GTP binding to Rab7, primary screen, biochemical, wildtype, multiplex bead flow cytometry (AID 758); settings: GST-Rab7 beads, fluorescent GTP binding, at 10 µM, actives lie on both sides, untreated = 100%, excess cold GTP = 0%;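 further: median green fluorescence of bound Bodipy-FL-GTP per Rab7 bead population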
In all, about 190,000 compounds went through this assay and about 110 (0.058%) were called active. Another 2% or so got no clear call; they are omitted. Shown is part of a subset that was picked to be rich in actives.
Can you tell me GTP binding activity (percent of control) for the items I'm about to list?
Give a bare numeral; the unit % is implied.

**Q:** Recorded GTP binding activity (percent of control) of O=C(NNC(=S)NCc1ccco1)C(c1ccccc1)c1ccccc1 , please.
**A:** 105

**Q:** Recorded GTP binding activity (percent of control) of CCc1nc2ccccc2c(C(=O)OC2CCCCC2=O)c1C (centres undefined) , please.
**A:** 99

**Q:** Recorded GTP binding activity (percent of control) of Cc1ccc(C2CCN(C(=S)Nc3cccc(Cl)c3)C2)cc1 (centres undefined) , please.
**A:** 101

**Q:** Recorded GTP binding activity (percent of control) of NC(=O)c1ccc(CN2CCC(Cc3ccccc3)CC2)cc1 , please.
**A:** 110

**Q:** Recorded GTP binding activity (percent of control) of CC(=O)c1c(C)[nH]c(C(=O)OCC(=O)NCCC(C)C)c1C , please.
**A:** 95

**Q:** Recorded GTP binding activity (percent of control) of CCc1c(SCCC(=O)O)nc2ccccc2c1C , please.
**A:** 99

**Q:** Recorded GTP binding activity (percent of control) of Cc1ccc(C(=O)NCC(=O)O)s1 , please.
**A:** 95

**Q:** Recorded GTP binding activity (percent of control) of O=C(CSc1ccc([N+](=O)[O-])cn1)Nc1ccc(N2CCOCC2)cc1 , please.
**A:** 95

**Q:** Recorded GTP binding activity (percent of control) of C=CCN(Cc1nc(-c2cc(OC)c3c(c2)OCO3)oc1C)C1CCS(=O)(=O)C1 (centres undefined) , please.
**A:** 92

**Q:** Recorded GTP binding activity (percent of control) of O=[N+]([O-])/C(N=Nc1ccccc1)=N\Nc1ccccc1 , please.
**A:** 101

**Q:** Recorded GTP binding activity (percent of control) of O=C1CS(=O)CN1c1ccc(Oc2ccccc2)cc1 (centres undefined) , please.
**A:** 93

**Q:** Recorded GTP binding activity (percent of control) of C[C@H](NC(=O)c1ccccc1Cl)C(=O)OCCOc1cccc(Cl)c1 , please.
**A:** 94

**Q:** Recorded GTP binding activity (percent of control) of COC(=O)c1ccc(CN2CCC(CO)(Cc3ccc(OC)cc3)CC2)cc1 , please.
**A:** 103

**Q:** Recorded GTP binding activity (percent of control) of C/C(CCc1ccccc1)=N\NC(=O)c1ccc(CN2CCOCC2)cc1 , please.
**A:** 103

**Q:** Recorded GTP binding activity (percent of control) of CCOc1ccc(/C=N/Nc2nncc(-c3ccccc3)n2)cc1OC , please.
**A:** 102

**Q:** Recorded GTP binding activity (percent of control) of NS(=O)(=O)c1cccc(NC(=O)COC(=O)/C=C/c2ccco2)c1 , please.
**A:** 94

**Q:** Recorded GTP binding activity (percent of control) of CC1(C)CC(N(Cc2ccccc2)C(=O)Cc2ccccc2)CCO1 (centres undefined) , please.
**A:** 101

**Q:** Recorded GTP binding activity (percent of control) of O=C(c1snnc1-c1ccccc1)N1CCOCC1 , please.
**A:** 100

**Q:** Recorded GTP binding activity (percent of control) of COc1cc(NC(=O)COc2ccccc2Cl)ccc1NC(=O)C(C)C , please.
**A:** 98

**Q:** Recorded GTP binding activity (percent of control) of CCn1c(SCc2ccccc2)nc2c(c1=O)SCC2 , please.
**A:** 94

**Q:** Recorded GTP binding activity (percent of control) of CC1(C)C2CCC1(C)C(OC(=O)c1ccc(O)cc1)C2 (centres undefined) , please.
**A:** 97

**Q:** Recorded GTP binding activity (percent of control) of O=C(CC1C(=O)NCCN1Cc1ccc(-c2ccccc2)cc1)NCc1ccncc1 (centres undefined) , please.
**A:** 96

**Q:** Recorded GTP binding activity (percent of control) of CN(C)S(=O)(=O)c1cccc(NC(=S)NCc2ccc3c(c2)OCO3)c1 , please.
**A:** 104

**Q:** Recorded GTP binding activity (percent of control) of O=C(CO/N=C/c1ccccc1OC(F)F)NC1CCCC1 , please.
**A:** 103

**Q:** Recorded GTP binding activity (percent of control) of CN1CCN(CCC(=O)N/N=C/C=C2\N(C)c3ccccc3C2(C)C)CC1 , please.
**A:** 98

**Q:** Recorded GTP binding activity (percent of control) of CCOC(=O)c1ccc(NC(=O)c2cc(=O)[nH]c3ccccc23)cc1 , please.
**A:** 94

**Q:** Recorded GTP binding activity (percent of control) of CCOc1cc(/C=C2/C(=N)N3OC(C)=CC3=NC2=O)ccc1OC , please.
**A:** 93

**Q:** Recorded GTP binding activity (percent of control) of Cc1ccc(NC(=O)CNCc2ccccn2)cc1S(=O)(=O)N(C)C , please.
**A:** 101

**Q:** Recorded GTP binding activity (percent of control) of O=[N+]([O-])c1cc(S(=O)(=O)CCCN2CCOCC2)ccc1F , please.
**A:** 95
